Give pIC50 for every item shown.
target: HIV integrase (Human immunodeficiency virus type 1 group M subtype B, UniProt P12497, F1332H); construct: HIV integrase full length gene; test: Determination of enzyme (HIV integrase) inhibitory activity; conditions: recombinant HIV integrase (F185H), strand transfer ELISA, absorbance at 450 nm
pIC50: −log10 of the molar value. Structures can show the parent of a compound that is named as a salt.

Check out these entries, answers already filled in.
| compound | result |
| --- | --- |
| CC(=O)N(C)c1cn2ccn(Cc3cccc(Cl)c3)c(=O)c2c(O)c1=O | > 8.00 |
| CS(=O)(=O)c1ccc(CNC(=O)c2cn3c(c(O)c2=O)C(=O)N(Cc2ccc(F)cc2)CC3)cc1 [Example 421, hydrochloride] | 7.00 to 8.00 |

Give pIC50 for each listed item.
1. O=C1c2c(O)c(=O)ccn2CCN1Cc1cccc(Cl)c1
2. O=C(Cc1cccnc1)Nc1cn2ccn(Cc3cccc(Cl)c3)c(=O)c2c(O)c1=O [Example 400, hydrochloride]
3. CC1(C)Cn2ccc(=O)c(O)c2C(=O)N1Cc1ccc(Cl)c(Cl)c1
4. Cc1cn(Cc2ccc(F)cc2)c(=O)c2c(O)c(=O)c(C(=O)C(C)(C)C)cn12 [Example 408, hydrochloride]
5. O=c1ccn2ccn(Cc3ccc(F)cc3)c(=O)c2c1O [Example 250, hydrochloride]

Result ::
1: 7.00 to 8.00; 2: > 8.00; 3: 7.00 to 8.00; 4: 7.00 to 8.00; 5: 7.00 to 8.00

Give pIC50 for each listed item.
1. CC(C)(C)C(=O)c1cn2ccn(Cc3cccc(Cl)c3)c(=O)c2c(O)c1=O [Example 125, hydrochloride]
2. O=C(Cc1ccccc1)Nc1cn2ccn(Cc3cccc(Cl)c3)c(=O)c2c(O)c1=O
3. O=C(NCc1ccc(F)cc1)c1cn2c(c(O)c1=O)C(=O)N(Cc1ccc(F)cc1)CC2
4. O=C1c2c(O)c(=O)c(-c3nccs3)cn2CCN1Cc1ccc(F)c(Cl)c1
5. CC(C)(C)c1cc(=O)c(O)c2n1CCN(Cc1ccc(Cl)c(Cl)c1)C2=O
6. COCc1cc(=O)c(O)c2n1CCN(Cc1ccc(Cl)c(Cl)c1)C2=O
7. COCC(C)(C)C(=O)c1cn2c(c(O)c1=O)C(=O)N(Cc1ccc(F)cc1)CC2

Result ::
1. > 8.00
2. > 8.00
3. > 8.00
4. > 8.00
5. 7.00 to 8.00
6. 7.00 to 8.00
7. 7.00 to 8.00

----------
Give pIC50 for every item shown.
biological target: HIV integrase (Human immunodeficiency virus type 1 group M subtype B, UniProt P12497, F1332H); construct: HIV integrase full length gene; experiment: Determination of enzyme (HIV integrase) inhibitory activity; conditions: recombinant HIV integrase (F185H), strand transfer ELISA, absorbance at 450 nm
pIC50: −log10 of the molar value. Counter-ions that a name gives are not always drawn.

Check out these entries, answers already filled in.
| compound | pIC50 |
| --- | --- |
| O=c1c(-c2ncccn2)cn2ccn(Cc3cccc(Cl)c3)c(=O)c2c1O [Example 170, hydrochloride] | 7.00 to 8.00 |
| O=C(Cn1ccn2ccc(=O)c(O)c2c1=O)Nc1ccccc1 [Example 200, hydrochloride] | 6.00 to 7.00 |
| CC(C)(C)C(=O)c1cn2c(CO)cn(Cc3ccc(F)c(Cl)c3)c(=O)c2c(O)c1=O [Example 241, hydrochloride] | > 8.00 |

In plain terms, O=c1c(-c2ccccn2)cn2ccn(Cc3cccc(Cl)c3F)c(=O)c2c1O [Example 364, hydrochloride] has a documented pIC50 of > 8.00
